- targetEntity: GST-ANAC092(1-176) (Arabidopsis thaliana, UniProt Q9FKA0 1-176)
- Sequence: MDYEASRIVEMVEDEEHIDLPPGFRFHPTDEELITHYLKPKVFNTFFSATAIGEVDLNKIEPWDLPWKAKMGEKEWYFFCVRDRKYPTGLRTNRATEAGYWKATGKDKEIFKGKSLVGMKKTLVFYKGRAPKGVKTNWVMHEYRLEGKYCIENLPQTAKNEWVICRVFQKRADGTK
- experimentDescription: universal protein binding microarray (PBM); transcription factors of Arabidopsis thaliana; high values mean tight binding
- testSettings: protein: recombinant; tags: GST; chain copies: 2; dsDNA, one strand shown
reportedMetric: binding signal (E-score)
Return type: number; implicit unit E-score.

sequenceInput: GTGACGTA
unit: E-score
binding signal: 0.447
//
sequenceInput: AAGTAATA
unit: E-score
binding signal: 0.31
//
sequenceInput: ACGTAACT
unit: E-score
binding signal: 0.443
//
sequenceInput: TAGGGAAA
unit: E-score
binding signal: 0.106

Sample `AGGGGAAA` — what was its binding signal? 0.191

Sample `CCACGCTA` — what was its binding signal? 0.405

Sample `AGTAAGTA` — what was its binding signal? 0.145

Sample `AGTCAACA` — what was its binding signal? 0.161
